assay: Solubility of X4P-001 by pH and in water; assay type: physicochemical; details: aqueous buffer; pH 9.0 (sparingly soluble)
ATTRIBUTE_MEASURED: solubility
Answers without a unit are incomplete; give the number and then its unit.

The compound listed as NCCCCN(Cc1nc2ccccc2[nH]1)[C@H]1CCCc2cccnc21 [X4P-001] has a reported solubility of 10.7 mg/mL

###

assay: Solubility of X4P-001 by pH and in water; format: physicochemical; settings: aqueous buffer; pH range 3.0 to 8.0 (freely soluble)
ATTRIBUTE_MEASURED: solubility

The molecule listed as NCCCCN(Cc1nc2ccccc2[nH]1)[C@H]1CCCc2cccnc21 [X4P-001] has a reported solubility of > 100 mg/mL
